test system: LOC_OS02G45750-cb003; assay: thermal shift delta Tm vs DMSO control; higher = stronger stabilization (binding); conditions: 12.5 µM; protein concentration 2 µM;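 further: purified Escherichia coli-expressed rice kinase domain construct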
Recorded thermal shift delta Tm for the following molecules
Outcome Measure: thermal shift delta Tm (°C)

>>> endpoint_result("O=C1NC(=O)/C(=C/c2ccc3c(c2)OC(F)(F)O3)S1")
1.3
>>> endpoint_result("COC(=O)N[C@@H](C)CNc1nccc(-c2cn(C(C)C)nc2-c2cc(Cl)cc(NS(C)(=O)=O)c2F)n1")
0.44
>>> endpoint_result("CC(C)(CO)n1cc(C(=O)c2cncc(NC(=O)Cc3ccc(Cl)cn3)c2)c2cnc(N)nc21")
1.08
>>> endpoint_result("Cc1nc(-c2cn3c(n2)-c2ccc(-c4cnn(C(C)(C)C(N)=O)c4)cc2OCC3)n(C(C)C)n1")
1.34
>>> endpoint_result("O=C(c1ccc(Nc2nccc(-c3cc4ccccc4s3)n2)cc1)N1CCC(N2CCCC2)CC1")
6.42
>>> endpoint_result("Cc1nc(Nc2cnn(C3CCNCC3)c2)nc2c1N(C)C(=O)c1cc3ccccc3cc1N2C")
2.86
>>> endpoint_result("CCNC(=O)C#Cc1ccc2c(C(=Nc3ccc(CN(C)C)cc3)c3ccccc3)c(O)[nH]c2c1")
7.14
>>> endpoint_result("O=c1cc(N2CCOCC2)oc2c1ccc1ccccc12")
0.57
